testedTarget: T1, EsCas13d, nuclease-dead (Eubacterium siraeum, UniProt B0MS50, R295A;H300A;R849A;H854A)
T1 sequence: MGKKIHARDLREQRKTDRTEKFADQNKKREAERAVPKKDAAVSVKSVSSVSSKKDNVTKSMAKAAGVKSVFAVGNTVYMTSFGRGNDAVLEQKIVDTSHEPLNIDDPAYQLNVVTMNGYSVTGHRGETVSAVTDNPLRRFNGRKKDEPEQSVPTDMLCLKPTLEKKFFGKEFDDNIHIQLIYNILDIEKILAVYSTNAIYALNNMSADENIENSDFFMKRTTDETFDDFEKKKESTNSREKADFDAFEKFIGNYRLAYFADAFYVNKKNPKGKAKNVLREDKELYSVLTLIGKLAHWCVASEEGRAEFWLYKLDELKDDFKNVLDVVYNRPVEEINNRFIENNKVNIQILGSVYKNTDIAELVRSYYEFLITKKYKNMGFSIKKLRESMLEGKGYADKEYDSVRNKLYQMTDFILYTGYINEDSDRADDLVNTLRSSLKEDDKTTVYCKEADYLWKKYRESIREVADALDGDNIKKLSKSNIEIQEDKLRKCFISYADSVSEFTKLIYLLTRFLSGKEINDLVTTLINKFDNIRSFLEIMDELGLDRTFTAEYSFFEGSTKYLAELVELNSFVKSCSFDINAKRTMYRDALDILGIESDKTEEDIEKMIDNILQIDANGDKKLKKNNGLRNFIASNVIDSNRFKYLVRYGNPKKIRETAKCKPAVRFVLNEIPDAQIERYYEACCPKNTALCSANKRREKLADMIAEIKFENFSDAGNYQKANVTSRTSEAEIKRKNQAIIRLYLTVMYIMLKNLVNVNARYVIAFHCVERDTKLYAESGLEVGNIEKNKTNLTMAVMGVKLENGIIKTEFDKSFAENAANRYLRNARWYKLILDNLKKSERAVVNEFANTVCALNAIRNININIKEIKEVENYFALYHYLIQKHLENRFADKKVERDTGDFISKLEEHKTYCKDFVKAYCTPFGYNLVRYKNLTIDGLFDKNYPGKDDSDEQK
experimentDescription: crRNA (strand 1, pre-loaded); Mg2+; 40 mM Tris-HCl pH 7.5, 150 mM NaCl, 6 mM MgCl2, 1 mM DTT, 0.1% Tween-20, 0.2 mg/ml BSA; 25 C; 10 min per concentration, then washed
measurementParameters: tags: His6-TwinStrep-SUMO cleaved; N-terminal SNAP kept (SNAP-Surface 488); label: 3' end held by stalled T7 RNA polymerase
quantityName: Kd (nM)
Numbers only, in nM.

Lab note: each binder below needs its Kd filled in.
1. target 3 insC 3' of 3,insG 3' of 1 (mixed) RNA 1: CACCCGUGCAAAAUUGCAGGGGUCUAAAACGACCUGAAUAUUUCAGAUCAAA RNA 2: GGGAAUGGAUCCACAUCUACGAAUUCGUUUUUGAUCUGAAAUAUUCAGGCUCGUGCAGAUCGGAAGAGCACACGU
2. target 1 MT 5'PFS ACG 3'PFS UCU (mixed) RNA 1: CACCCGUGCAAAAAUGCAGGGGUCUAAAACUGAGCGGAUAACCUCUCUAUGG RNA 2: GGGAAUGGAUCCACAUCUACGAAUUCACGCCAUAGAGAGGUUAUCCGCUCAUCUAGAUCGGAAGAGCACACGU

[out]
[27.1, 9.65]
